Origin of the recorded values: ChEMBL document CHEMBL1201862

Let's look at some compounds and their measured GI50.
System: NCI-H23
Assay: NCI tumour cell line growth inhibition, 48 h
The source made the active and inactive calls. Cut-off read from the data, not from the text of the source: active = GI50 up to about 1.1 µM and inactive = higher.

A selection of reference data follows.
{"columns": ["compound", "tgt", "measured-quantity", "data-value"],
 "data": [
  ["CCCn1cc2c3c(cccc31)C1C=C(C)CN(C)C1C2 (stereo unspecified)", "NCI-H23", "GI50", "25.5 µM (inactive)"],
  ["CCN1C[C@]2(COC)[C@H](O)C[C@H](OC)[C@]34C1[C@H]([C@H](OC)[C@H]23)[C@]1(OC(C)=O)[C@H]2[C@@H](OC(=O)c3ccccc3)[C@](O)(C[C@H]24)[C@@H](OC)[C@@H]1O", "NCI-H23", "GI50", "> 100 µM (inactive)"]
]}

Request: Bench note: what GI50 did CCN(CC)CCOc1ccc(N2Cc3ccccc3C2=O)cc1 show?
Response: > 10 µM (inactive)

Request: Note, next up: Cc1ccc(-n2cc(-c3ccc(Cl)cc3)c3c2N=CN2N=C(c4cccs4)NC32)cc1 (stereo unspecified)
Response: 15.3 µM (inactive)

Request: Note, next up: O=C1C=CC(=O)C2=C1[C@@H](O)C1CC=CC3C(=O)O[C@@H]2C31 (stereo partly specified)
Response: 27 µM (inactive)

Request: Note, next up: CCCc1nc(N)nc(C(=O)Nc2cccc(C(F)(F)F)c2)c1CC
Response: > 100 µM (inactive)

Request: Note, next up: COc1cc(/C=C2\CCC/C(=C\c3ccc(O)c(OC)c3)C2=O)ccc1O
Response: 6.75 µM (inactive)

Request: Note, next up: c1ccc2c(c1)SC1=C(SC(=C3SC4=C(S3)Sc3ccccc3S4)S1)S2
Response: > 100 µM (inactive)

Request: Note, next up: [O-][S+](Nc1ccccc1)c1cccc(Cl)c1 (stereo unspecified)
Response: 42.7 µM (inactive)

Request: Note, next up: Cn1cc2ccccc2c1-c1nc(F)nc(Oc2ccc3c(c2)CC[C@@H]2C3CC[C@]3(C)C(O)CCC23)n1 (stereo partly specified)
Response: > 10 µM (inactive)

Request: Note, next up: CCCCCCCCCCCCCCCCCCNc1ccn(C2OC(COP(=O)(O)OCC3OC(n4cc(C)c(=O)[nH]c4=O)CC3N=[N+]=[N-])C(O)C2O)c(=O)n1 (stereo unspecified)
Response: 19.5 µM (inactive)

Request: Note, next up: O=S(=O)(c1ccccc1)n1cc(C[P+](c2ccccc2)(c2ccccc2)c2ccccc2)c2ccccc21
Response: 2.99 µM (inactive)

Request: Note, next up: CCCCNC1=C2C(=O)NN=C2CO1
Response: > 100 µM (inactive)

Request: Note, next up: COc1ccc(N)c(C(O)CCNC(C)=O)c1 (stereo unspecified)
Response: > 100 µM (inactive)

Request: Note, next up: c1ccc(/N=C2\c3ccccc3CN2c2ccccn2)nc1
Response: 71.9 µM (inactive)

Request: Note, next up: O=[N+]([O-])/C(C(Cl)=C(Cl)Cl)=C(/Nc1cccc2cccnc12)n1nnc2ccccc21
Response: 15.5 µM (inactive)

Request: Note, next up: CC(CCC(=O)O)c1ccc(Br)cc1 (stereo unspecified)
Response: > 100 µM (inactive)

Request: Note, next up: Cc1ccc(S(=O)(=O)c2ccc(N)cc2)cc1
Response: > 100 µM (inactive)

====

Let's look at some compounds and their measured GI50.
Test system: IGROV-1
Test: NCI tumour cell line growth inhibition, 48 h
Calls of active or inactive are those of the source. Cut-off read from the data, not from the text of the source: active = GI50 up to about 1.1 µM and inactive = higher.

{"columns": ["compound", "measured-quantity", "data-value"],
 "data": [
  ["OCc1cn(C(c2ccccc2)(c2ccccc2)c2ccccc2)cn1", "GI50", "> 100 µM (inactive)"],
  ["OC(c1ccc(C(F)(F)F)cc1)C(F)(F)c1nc2ccccc2o1 (stereo not given)", "GI50", "> 100 µM (inactive)"],
  ["Cc1ccc2nc(NC(=O)/C(=N\\NC(=S)NN)C3C(=O)NC(=S)NC3=O)sc2c1", "GI50", "> 100 µM (inactive)"],
  ["COC(=O)NC(=O)c1cn(C2CCCCC2)c(=O)[nH]c1=O", "GI50", "> 100 µM (inactive)"],
  ["c1ccc(NC2(c3nnnn3C3CCCCC3)CCNCC2)cc1", "GI50", "32.7 µM (inactive)"],
  ["N=C(N)Nc1ccc(CC(N)C(=O)NCC(=O)C(CC(=O)O)c2ncc(NC(=O)C(F)(F)F)o2)cc1 (stereo not given)", "GI50", "> 25 µM (inactive)"]
]}

Request: Bench note: what GI50 did Cc1nc2c(n1-c1ccc(Br)cc1)C(=O)c1ccccc1C2=O show?
Response: 21.2 µM (inactive)

Request: Note, next up: O=C(O)c1ccccc1/C=C1\Cc2ccc3c(c2C1=O)CCCC3
Response: 31 µM (inactive)

Request: Note, next up: C=C1c2nc3ccccc3n2C=C(c2ccccc2)N1c1ccc([N+](=O)[O-])cc1
Response: 4.84 µM (inactive)

Request: Note, next up: CNC1=C(C)C(=O)C(C)=C(C(C)(C)CC(=O)n2cc(F)c(=O)[nH]c2=O)C1=O
Response: 67 µM (inactive)

Request: Note, next up: CCCCCCCCCC(O)CC(=O)c1c(O)cccc1O (stereo not given)
Response: 18.8 µM (inactive)

Request: Note, next up: CCN(CC)CC1CCCCN1CC(=O)N1c2ccc(Br)cc2C(=O)Nc2cccnc21 (stereo not given)
Response: > 100 µM (inactive)

====

Let's look at some compounds and their measured GI50.
System: HCC 2998
Experiment: NCI tumour cell line growth inhibition, 48 h
The source made the active and inactive calls. Cut-off read from the data, not from the text of the source: active = GI50 up to about 1.1 µM and inactive = higher.

A selection of reference data follows.
{"columns": ["compound", "data-value"],
 "data": [
  ["CCCCCCCCCC(O)CC(=O)c1c(O)cccc1O (stereo not drawn)", "12.4 µM (inactive)"],
  ["CC(=O)OC1CCC2OOC1O2 (stereo not drawn)", "> 100 µM (inactive)"],
  ["CC(CCC(=O)O)c1ccc(Br)cc1 (stereo not drawn)", "> 100 µM (inactive)"],
  ["Nc1c(C(=O)O)nnc2ccc(Cl)cc12", "> 100 µM (inactive)"],
  ["CCN(CC)CC1CCCCN1CC(=O)N1c2ccc(Br)cc2C(=O)Nc2cccnc21 (stereo not drawn)", "> 100 µM (inactive)"]
]}

Request: Bench note: what GI50 did Nc1nc(Cl)c(/N=N/c2ccc(Cl)cc2)c(NCC2(CO)CCC(CCc3ccccc3)C2)n1 (stereo not drawn) show?
Response: 5.97 µM (inactive)

Request: Note, next up: C=C(c1ccccc1)C1(O)CCCCC1N (stereo not drawn)
Response: > 100 µM (inactive)

Request: Note, next up: CCCOC(=O)c1cc(C(=CCC[C@H]2CC[C@@]3(C)[C@@H](CC[C@@H]4[C@@H]3CC[C@]3(C)[C@@H](C(C)CCCC(C)C)CC[C@@H]43)C2)c2cc(Cl)c(O)c(C(=O)OCCC)c2)cc(Cl)c1O (stereo partly drawn)
Response: > 50 µM (inactive)

Request: Note, next up: C=C1C(=O)OC2C3OC(C)(CCC(O)C3COC(C)=O)CC(OC(=O)/C(=C/C)COC(C)=O)C12 (stereo not drawn)
Response: 1.3 µM (inactive)

Request: Note, next up: C=CS(=O)(=O)CCN1CC1
Response: > 10 µM (inactive)

Request: Note, next up: CCOP(=O)(OCC)C1CC(n2cc(C)c(=O)[nH]c2=O)OC1CO (stereo not drawn)
Response: > 100 µM (inactive)

Request: Note, next up: CCOC(=O)c1nc2c(nc1C(=O)OCC)C(=O)c1ccccc1C2=O
Response: 1.35 µM (inactive)

Request: Note, next up: Clc1cc(C(c2cc(Cl)sc2Cl)c2cc(Cl)sc2Cl)c(Cl)s1
Response: > 100 µM (inactive)

====

Test system: HCT-116
Assay: NCI tumour cell line growth inhibition, 48 h
Calls of active or inactive are those of the source. No stated cut-off is given here; in the data, active = GI50 up to about 1.1 µM and inactive = higher.
Would you mind answering with one of these outcomes? YES = active, NO = inactive

{"columns": ["molecule", "group"],
 "data": [
  ["CCOC1OCCCC1Br (configuration not stated)", "NO"]
]}

Request: Identify the outcome logged in this assay for the molecule shown: Cc1nn(C)c(=S)n(C)c1=O
Response: YES

Request: Note, next up: CCP(=O)(CC)C(Cl)(Cl)C(O)C(C)(C)C (configuration not stated)
Response: NO

Request: Note, next up: CCOC(=O)CCC(NC(=O)c1ccc(Nc2cnc3cc(C(F)(F)F)ccc3n2)cc1)C(=O)OCC (configuration not stated)
Response: NO

====

Test system: CAKI-1
Assay: NCI tumour cell line growth inhibition, 48 h
Activity calls are given as the source filed them. Rule as the data show it: active = GI50 up to about 1.1 µM and inactive = higher.
Would you mind answering with one of these outcomes? 1 (yes) (active), 0 (no) (inactive)

{"columns": ["compound", "group"],
 "data": [
  ["Cc1c(N2C(=O)C(Cl)C2c2ccc(Cl)cc2)c(=O)n(-c2ccccc2)n1C (configuration not stated)", "0 (no)"],
  ["CC[C@H](NC(=O)OC(C)(C)C)C(=O)NCP(=O)(OCc1ccc([N+](=O)[O-])cc1)OCc1ccc([N+](=O)[O-])cc1", "0 (no)"],
  ["COC1=C(C)C(=O)C2=C(C1=O)C1C3CC4=C(C(=O)C(OC)=C(C)C4=O)C(CNC(=O)C(C)=O)N3C(C#N)C(C2)N1C (configuration not stated)", "1 (yes)"],
  ["N/N=C(/Cc1nc2ccc(C(=O)c3ccccc3)cc2nc1O)C(=O)Nc1ccc([N+](=O)[O-])cc1[N+](=O)[O-]", "0 (no)"],
  ["COC(=O)Nc1nc2cc(NS(=O)(=O)c3ccc(Cl)cc3)ccc2[nH]1", "0 (no)"],
  ["Brc1cccc(Nc2ncnc3sc4c(c23)CCC(Nc2cccc(Br)c2)C4)c1 (configuration not stated)", "0 (no)"]
]}

Request: Identify the outcome logged in this assay for the compound shown: COc1ccc(-c2c(C(=O)Nc3ccccc3)c(-c3ccccc3)n(C3OC(CO)C(O)C(O)C3O)c(=S)c2C#N)cc1 (configuration not stated)
Response: 0 (no)

Request: Note, next up: CCOP(=O)(OCC)C1=C(c2ccccc2)OC(N)=C(C#N)C1c1ccc(Cl)cc1 (configuration not stated)
Response: 0 (no)

Request: Note, next up: C=C(C)CC1(O)C(=O)C(OCC)=C1OCC (configuration not stated)
Response: 0 (no)
